These data points were gathered from the Deep4Chem optical property database.

# EXPERIMENT_SUMMARY: photoluminescence quantum yield (fraction); solvent given as SMILES
# CONDITION_INFO: in CCOC(C)=O

STRUCTURE_SMILES: CC1=[N+]2C(=C(c3ccccc3)c3ccc(C)n3[B-]2(F)F)C=C1
photoluminescence quantum yield: 0.25
//
STRUCTURE_SMILES: Cc1ccc(C2=C3C=CC(Cl)=[N+]3[B-](F)(F)n3c(Cl)ccc32)cc1
photoluminescence quantum yield: 0.32
//
STRUCTURE_SMILES: N#Cc1cc2ccc(O)cc2oc1=N
photoluminescence quantum yield: 0.072
//
STRUCTURE_SMILES: CCN(CC)c1ccc2cc(/C=C/C(O)=C/C(C)=O)c(=O)oc2c1
photoluminescence quantum yield: 0.5
//
STRUCTURE_SMILES: CCOC(=O)CN(CC(=O)OCC)c1ccc(-c2cc(-c3ccncc3)nc(-c3ccncc3)c2)cc1
photoluminescence quantum yield: 0.48
